Cited source: paper PMC7582876

target: peptidyl-glutamyl peptide-hydrolyzing (PGPH or caspase-like C-L) activity of human 20S proteasome (Homo sapiens, UniProt P28072); construct: 20S proteasome, isolated and purified from human erythrocytes; experiment: Inhibition of peptidyl-glutamyl peptide-hydrolyzing activity of 20S proteasome (Cbz-Leu-Leu-Glu-AMC); conditions: 10 min, no pre-incubation, 30 °C
As shown below, each of these compounds has a reported IC50 value.

The examples below pair each entry with its known result.
>  <smiles.str>
CCP(CC)CC.[Br][Au]

>  <value.measured>
> 10 µM

$$$$
>  <smiles.str>
CC[P](CC)(CC)[Au][I]

>  <value.measured>
> 10 µM

$$$$

Prompt: Consider the compound shown here: CCP(CC)CC.[Au+].[Cl-] What is its recorded IC50?
Response: > 10 µM
